target-or-system: HIV-1 reverse transcriptase (RT) (HIV-1, UniProt P04585;P04585 P04585:588-1147,P04585:588-1027)
protocol-description: inhibition; RT activity, 80 mM KCl, 50 mM Tris pH 8.0, 6 mM MgCl2, 37 C
run-parameters: pseudoknot-like potential stated for some aptamers
pIC50: −log10 of the molar value.
recorded-endpoint: pIC50

[
  {
    "binder": "aptamer 70.8,13 (ssRNA) RNA: AGCUCGAGCUCGAAUUCAAAGAGAUCUGGCAGUGUCACAACCAGGAAAAAGACACGACGAACGGGCCCGGAUCCGUC",
    "recorded-endpoint": "pIC50",
    "numeric-readout": 7.05
  }
]
